# system-name: KCNQ2/3 channels (Homo sapiens, UniProt O43525+O43526)
# Construct: expressed in transfected cells; host or cells: CHO-K1 cells, kept under selection antibiotics
# method-notes: Fluorescence assay using a voltage sensitive dye (fluorimetry)
# Assay type: cell-based
# test-parameters: 10 μM; relative to retigabine = 100%; CHO-K1 cells expressing KCNQ2/3; read-out: Fluorimetry % efficacy @ 10 μM (retigabine = 100%)
metric: Emax at 10 µM (%)

Solved cases below.
FC(F)(F)Sc1ccc(CNc2noc3nc(C(F)(F)F)ccc23)cc1 [Exemplary compound 19] | 41
FC(F)(F)Sc1ccc(CNc2noc3ncccc23)cc1 [Exemplary compound 2] | 77
FC(F)(F)Sc1ccc(CNc2noc3c(C(F)(F)F)nccc23)cc1 [Exemplary compound 23] | 27

I = Cc1cc(C)cc(CNc2noc3cnccc23)c1 [Exemplary compound 7]
II = FC(F)(F)Sc1ccc(CNc2noc3cnccc23)cc1 [Exemplary compound 6]
III = CC(Nc1noc2ncccc12)c1ccc(SC(F)(F)F)cc1 (stereo not drawn) [Exemplary compound 5]
**Query** Your job: order these 3 records by Emax at 10 µM, ascending. Please, when replying, give the labels in the order that was requested.
**Result** I, II, III
(I: 29%, II: 65%, III: 97%)

I = Cc1cc(C)cc(C(C)Nc2noc3cnccc23)c1 (stereo not drawn) [Exemplary compound 15]
II = Cc1cc(C)cc(C(C)Nc2noc3nc(C)ccc23)c1 (stereo not drawn) [Exemplary compound 22]
III = Cc1cc(C)cc(C(C)Nc2noc3cccnc23)c1 (stereo not drawn) [Exemplary compound 10]
**Query** Order field: Emax at 10 µM | Direction: descending (largest first) Show the ranking through the labels, in the order asked for.
**Result** I, II, III
(I: 73%, II: 49%, III: 27%)
